- System: 7G8
- Test Details: qHTS profiling for inhibitors of Plasmodium falciparum proliferation (AID 504749); also: potency is read from the fitted curve at half-maximal effect; nearly all actives have a fitted effect of over 60% in size
- Setup Conditions: P. falciparum in erythrocytes, SYBR Green DNA, 72 h; series mostly up to 28.7 µM
Inconclusive results are not listed. Activity calls are given as the source filed them. Calls follow the shape of the dose curve; as a rule, active = well fitted inhibition curve with a large enough effect; inconclusive = small, poorly fitted or top-dose-only effect; inactive = flat fitted curve, though single readings scatter.
Measurement Name: Potency

See these solved cases before continuing.
INSERT INTO assay_data (molecule, target_entity, test_value) VALUES
  ('Nc1ccc2cc3ccc(N)cc3nc2c1', '7G8', '2240 nM (active)'),
  ('O=C(Nc1ccc(Cl)cc1)Nc1ccc(Cl)c(Cl)c1', '7G8', '501 nM (active)'),
  ('CCCCCCCCCCCCCCCC[N+](C)(C)Cc1ccccc1', '7G8', '3160 nM (active)');

Note to self: Potency recorded for O=[N+]([O-])c1ccc(O)c2ncccc12 was 11200 nM (active)

Record summary for CC(NCCC(c1ccccc1)c1ccccc1)c1ccccc1 (configuration not stated) : reported Potency = 2240 nM (active)

Notebook: CCCCCCCCCCCCCCCC[n+]1ccccc1 , Potency read as 5010 nM (active)

====

- Test Details: Drug repurposing screens with cells derived from glioblastoma tumor samples (AID 1345199); also: % is scaled to controls: 0 for no effect and ±100 for the full control effect; nearly all actives have a fitted effect of over 40% in size
- Setup Conditions: GBM patient neurospheres viability, ATP luminescence, 48 h; at 45.9 µM (top of the series); tumour line B
Inconclusive results are not listed.
Measurement Name: activity, negative = cell killing (%)
The figure you give is taken to be in %; do not add the unit.

These solved cases illustrate the format of a correct answer.
INSERT INTO measurements (compound, measurement_name, test_value) VALUES
  ('C[N+]1(CC2COC(c3ccccc3)(c3ccccc3)O2)CCCCC1 (stereo unspecified)', 'activity, negative = cell killing', -10.9),
  ('CC(C)=CCC/C(C)=C/CC/C(C)=C/CCC(=O)OC/C=C(\C)CCC=C(C)C', 'activity, negative = cell killing', -1.59),
  ('C[C@@H](C1=C(CCN(C)C)Cc2ccccc21)c1ccccn1', 'activity, negative = cell killing', -18.9);

The reported activity, negative = cell killing of the compound Cc1cc(O)c2c(O)c3c(O)cccc3cc2c1 was -27.7

Briefly, activity, negative = cell killing measured for COc1cc(C=O)ccc1O : -12.2

The recorded activity, negative = cell killing for entry O=C(O)c1[nH]n(-c2ccc(S(=O)(=O)O)cc2)c(=O)c1N=Nc1ccc(S(=O)(=O)O)cc1 equals 1.15

====

- Test Details: Cell Viability - LYMP2-008 (AID 980); also: nearly all actives have a fitted effect of over 60% in size
- Setup Conditions: LYMP2-008 lymphoblastoid cell viability, qHTS; series mostly up to 92.2 µM
Results filed as inconclusive are left out. Activity calls are given as the source filed them. Calls follow the shape of the dose curve; as a rule, active = well fitted cell-killing curve with a large enough effect; inconclusive = small, poorly fitted or top-dose-only effect; inactive = flat fitted curve, though single readings scatter.
Hello, when you answer, please use one of the following outcomes: active, inactive

INSERT INTO assay_data (compound, qualitative_label) VALUES
  ('CC(C)(c1ccc(O)cc1)c1ccc(O)cc1', 'inactive'),
  ('CCCC(=O)c1cc(O)c(O)cc1O', 'inactive'),
  ('Nc1ccc(O)cc1', 'active'),
  ('Cc1ccc(O)cc1', 'inactive'),
  ('Nc1c2ccccc2nc2ccccc12', 'active'),
  ('Oc1ccccc1', 'inactive');

IN: For this compound, state the assay outcome: CCCCC(CC)COC(=O)c1ccccc1C(=O)O (stereo not given)
OUT: inactive

IN: Recorded test outcome, item O=C(Oc1ccccc1)c1ccccc1O
OUT: inactive

IN: Look up the recorded call for COc1cc(C=O)ccc1O in this test.
OUT: inactive

IN: Recorded test call requested for Brc1ccccc1-c1ccccc1
OUT: inactive
